Tested on: P. falciparum Dd2 Cytb A122D
experiment: SYBR Green ABS proliferation assay, NCGC00473217 selected clone F12
Assay type: cell-based, Plasmodium falciparum
experimental.parameters: Plasmodium falciparum, DD2, cytochrome b mutant line, fourth value triple, c12; […]; read-out: log AC50, mean (converted)
recorded.metric: log10 AC50 (log10 of the value in µM)
Scale: log10; quantity: AC50; unit before log: µM

In the examples that follow, each entry is paired with its recorded log10 AC50.
CCCN1C(CC(C)C)=N[S+](=O)([O-])c2cc(NCc3cccs3)ccc21	1.29
CCCN1C(CC(C)C)=N[S+](=O)([O-])c2cc(NC(=O)c3ccc(Cl)cc3)ccc21	-0.65
CCCN1C(CC(C)C)=N[S+](=O)([O-])c2cc(NC(=O)Cc3cccs3)ccc21	0.72
CCCN1C(CC(F)(F)F)=N[S+](=O)([O-])c2cc(NC(=O)c3cccs3)ccc21	0.85
CCCN1C(CC(C)C)=N[S+](=O)([O-])c2cc(NCc3ccccc3)ccc21	0.98

Exam item: May I ask what log10 AC50 has been recorded for COc1ccc(-c2nc(C(C)C)nc3c2CCN(C(=O)Nc2ccccc2)CC3)cc1 ?
Marked response: 1.16

Exam item: Can you look up the measured log10 AC50 of CN1C(CC2CCCCC2)=N[S+](=O)([O-])c2cc(NC(=O)c3ccc(F)s3)ccc21 for me?
Marked response: 0.73

====

experiment: in vitro
experimental.parameters: human, HepG2 cells; n = 1
recorded.metric: CC50 at 48 h (µM)
The answer is to be given in µM; state only the numeric part.

Check out these entries, answers already filled in.
Cc1cc(C)n(CCC(=O)N2CC(Oc3ccc(-c4nc(-c5ccccc5)no4)cc3)C2)n1	10.9
c1csc(-c2cn3ccc4ccccc4c3n2)c1	15.3

Exam item: I would be grateful if you could share the reported CC50 at 48 h for COc1cc(NC2CCCCC2O)c2nc(-c3ccc(Cl)cc3)ccc2c1 (centres unmarked) .
Marked response: 13.7

Exam item: Query: CC50 at 48 h; subject: CN(C)CCCn1cnc2c(c1=N)C(c1ccccc1)c1ccc3ccccc3c1O2 (centres unmarked)
Marked response: 30.6

Exam item: Recorded CC50 at 48 h of CCNC(S)=N/N=C/c1sc(N2CCCCC2)nc1-c1cccs1 , please.
Marked response: 15.3

Exam item: Which CC50 at 48 h is listed for CCOC(=O)c1cnc(-n2nc(C)cc2C)nc1NC1CCCC1 ?
Marked response: 17.2

Exam item: Give its CC50 at 48 h value. Item: c1ccc(CCNc2nc(-c3ccccn3)nc3ccccc23)cc1
Marked response: 10.9

Exam item: Can you share its CC50 at 48 h? I mean this compound: COc1cc(C(=O)N/N=C(/c2ccccc2)c2ccccn2)cc(OC)c1OC
Marked response: 10.9

Exam item: Requested field: CC50 at 48 h. Item: Cc1cc(O)c(-c2cc(C(=O)Nc3ccc(S(=O)(=O)N4CCOCC4)cc3)[nH]n2)cc1C
Marked response: 27.3

Exam item: I'd like to know its CC50 at 48 h. The compound in question is O=C(Nc1ccc([N+](=O)[O-])cc1)Nc1nc(-c2ccc(Cl)s2)cs1
Marked response: 13.7

Exam item: So what's the measured CC50 at 48 h for this one? c1ccc(Oc2nc(-c3ccccn3)nc3ccccc23)cc1
Marked response: 9.68

Exam item: What measured CC50 at 48 h goes with Oc1c(CNc2ccccc2)cc(COCc2ccccc2)c2cccnc12 ?
Marked response: 21.7
